Data provenance is PubChem BioAssay (NCI).

# Tested on: SK-MEL-5 melanoma
# ASSAY TEXT: NCI-60 one-dose screen, 48 h (100 = growth as untreated, 0 = no growth, -100 = all killed)
# CONDITION NOTES: 10 µM unless noted
This is part of a sample that, as a whole, favours compounds with a hit. Of some 83,000 tested, about 20% had one in any assay.
RECORDED METRIC: growth (%)
Express the result in % but write the number alone.

Recorded results for 6 compounds are shown here.
COMPOUND	EXPERIMENTAL TARGET	READING
COc1ccc(/C=C(\C#N)c2cc3ccccc3n2C)cc1	SK-MEL-5 melanoma	23.2
O=C(Nc1ccc(F)cc1)c1ccc(C(=O)Nc2ccc(F)cc2)cc1	SK-MEL-5 melanoma	99.9
COC(=O)c1c2c(c(C)[n+]([O-])c1C)C(=O)C=C(NCc1ccc(F)c(Cl)c1)C2=O	SK-MEL-5 melanoma	-97.7
O=C(NCc1ccco1)C1CCN(S(=O)(=O)c2ccc(Cl)cc2)CC1	SK-MEL-5 melanoma	75.7
Cc1ccc(S(=O)(=O)N2CCc3ccc(O)c4c3C2Cc2ccc3c(c2-4)OCO3)cc1 (centres undefined)	SK-MEL-5 melanoma	25.9
NC1=NC(c2ccccc2OS(=O)(=O)c2ccc(Br)cc2)n2c(nc3ccccc32)N1 (centres undefined)	SK-MEL-5 melanoma	91

Entry Cc1nc2cc(Nc3nc(Nc4ccc(F)cc4)nc(N4CCN(C)CC4)n3)ccc2n1Cc1ccccc1 has what growth?
80.9

Entry O=c1c2c(=NCCN3CCCC3)cc3c(=O)n(CCCN4CCOCC4)c(=O)c4ccc(c(O)n1CCCN1CCOCC1)c2c4-3 has what growth?
-14.9

Entry CCC(C)Oc1cc(/C=N/NC(=O)c2cnn3c2NC(c2ccccc2)C3)ccc1OC (centres undefined) has what growth?
21.2

---

# Tested on: SF-539 CNS
# ASSAY TEXT: NCI-60 one-dose screen, 48 h (100 = growth as untreated, 0 = no growth, -100 = all killed)
# CONDITION NOTES: 10 µM unless noted
About 83,000 compounds went through this panel and 20% of them were active in at least one assay; those are over-represented in the sample as a whole. Calls of active or inactive are those of the source. How the source made its calls: active means growth percent below 10; inactive means the rest.
RECORDED METRIC: growth

MOLECULE	growth
COc1ccc(OC2=CC(=O)c3ccc(C)nc3C2=O)cc1	89.6% (inactive)
O=C1/C(=C/c2ccc(F)cc2)CN(Cc2cn(CCNc3ccnc4cc(Cl)ccc34)nn2)C/C1=C\c1ccc(F)cc1	-78.5% (active)
O=C1c2c(c3c4cc(Br)ccc4[nH]c3c3ccc4ccccc4c23)C(=O)N1O	96.4% (inactive)
Brc1ccc(SCN(CSc2ccc(Br)cc2)Cc2ccccc2)cc1	49.8% (inactive)
CN1CCc2c(c3ccccc3c3ccccc23)C1	50.8% (inactive)
CCCCC(CCCC)(S(=O)(=O)CC)S(=O)(=O)CC	101% (inactive)

Entry CN1CCc2c(Sc3ccc(C(=O)NO)cc3)c3ccccc3n2C1 has what growth?
17.1% (inactive)

Entry CC1=C(C/C=C(\C)CCC[C@H](C)CCC[C@H](C)CCCC(C)C)C(=O)c2ccccc2C1=O has what growth?
96.4% (inactive)

Entry COc1cc(/C=C2\C(=O)N(c3c(Cl)cccc3Cl)c3ccccc32)cc(OC)c1O has what growth?
45.1% (inactive)

Entry C=C(C)COC(=O)c1ccccc1C(=O)OCC1(C)CO1 (stereo not given) has what growth?
101% (inactive)

Entry COc1ncnc2c1ncn2C/C(Br)=C(\Br)CCl has what growth?
11.8% (inactive)

Entry Clc1ccc(Nc2nc(Nc3ccccc3)nc(Nc3ccc(-c4cc(-c5ccc(Cl)cc5)on4)cc3)n2)cc1 has what growth?
54.2% (inactive)

Entry COc1ccc(S(=O)(=O)ON=C2C=C(C)C(=O)C(C)=C2)cc1 has what growth?
94% (inactive)

Entry CC1CCCCN1S(=O)(=O)c1ccc(CN=C=S)cc1 (stereo not given) has what growth?
78.3% (inactive)

Entry COc1cc2nc(N3CCC[C@H](NC4=CC(=O)c5ccccc5C4=O)C3)nc(N)c2cc1OC has what growth?
-100% (active)

---

# System: A549/ATCC NSCLC
# ASSAY TEXT: NCI-60 one-dose screen, 48 h
# CONDITION NOTES: 10 µM unless noted
About 83,000 compounds went through this panel and 20% of them were active in at least one assay; those are over-represented in the sample as a whole. The source made the active and inactive calls. How the source made its calls: active means growth percent below 10; inactive means the rest.
Give your call using only these classes: t for active, f for inactive

MOLECULE	EXPERIMENTAL TARGET	CLASS ASSIGNMENT
COc1cc(Cn2cc(F)c(=O)[nH]c2=O)cc(OC)c1	A549/ATCC NSCLC	f
Cc1ccc(S(=O)(=O)c2ccc3[nH]c(=O)[nH]c(=O)c3c2)cc1	A549/ATCC NSCLC	f
Cc1c(C(=O)Nc2nc(-c3ccccc3)cs2)nnn1-c1cccc2ccccc12	A549/ATCC NSCLC	f
COc1ncnc2c1ncn2C/C(Br)=C(\Br)CCl	A549/ATCC NSCLC	t
CC1CCCCN1S(=O)(=O)c1ccc(CN=C=S)cc1 (configuration not stated)	A549/ATCC NSCLC	f

Write down the call the test reported for this molecule. Item: COc1ccc(/C=N/OCC(O)CN2CCC(O)CC2)cc1OC1CCCC1 (configuration not stated)
f

Write down the call the test reported for this molecule. Item: COc1ccc2c(c1)c(=O)oc1c(C)c(OCC(C)=O)ccc12
f

Write down the call the test reported for this molecule. Item: Cc1nn(-c2ccccc2)c2nc3nc4c(c(N)c3c(-c3ccc(Cl)cc3)c12)CCCC4
f

Write down the call the test reported for this molecule. Item: CCC12CCC3c4ccc(O)cc4CCC3C1CC(O)C2O (configuration not stated)
f

Write down the call the test reported for this molecule. Item: O=C(c1ccc2ncc(-c3nc(NC4CC4)ncc3F)n2c1)N1CCOCC1
f

Write down the call the test reported for this molecule. Item: COc1cc(C(=O)N(C(C)C)C2CCCCC2)cc(OC)c1OC
f

Write down the call the test reported for this molecule. Item: O=c1oc2ccccc2cc1-c1csc(N=Nc2c(O)[nH]c3ccc(Cl)cc23)n1
f

---

# Test system: UACC-257 melanoma
# ASSAY TEXT: NCI-60 one-dose screen, 48 h
# CONDITION NOTES: 10 µM unless noted
About 83,000 compounds went through this panel and 20% of them were active in at least one assay; those are over-represented in the sample as a whole. Activity calls are given as the source filed them. How the source made its calls: active means growth percent below 10; inactive means the rest.
Give your call using only these classes: yes (1) = active, no (0) = inactive

Write down the call the test reported for this compound. Item: C=C(C)CCCC(C)CC#N (stereo not drawn)
no (0)

Write down the call the test reported for this compound. Item: CSC1=CC(=O)c2ccccc2C1=O
no (0)

---

# System: UACC-257 melanoma
# ASSAY TEXT: NCI-60 one-dose screen, 48 h
# CONDITION NOTES: 10 µM unless noted
Compounds without any hit were thinned out: in the full panel of roughly 83,000, 20% have a hit. Calls of active or inactive are those of the source. Rule for the calls: active = growth percent below 10; inactive = the rest.
Give your call using only these classes: active, inactive

Known results for molecules:
MOLECULE	CLASS ASSIGNMENT
COc1ccccc1CNCCCCCCCCCCCCN1C(=O)c2ccc3c4c(ccc(c24)C1=O)C(=O)N(CCCCCCCCCCCCNCc1ccccc1OC)C3=O	inactive
Cc1nn(CC(=O)O)c2c1C(=O)CC(C)(C)C2	inactive
Oc1ccc2ccccc2c1C1NN=C(c2ccccc2)S1 (stereo not given)	active
COc1cc2oc(-c3ccc(O)cc3)cc(=O)c2c(O)c1I	inactive
Clc1ccc2c(N3CCN(c4ccnc(NC5CCCCC5)n4)CC3)ccnc2c1	active
O=C1/C(=C/c2ccc(Cl)cc2)N=C(c2ccccc2)N1CCc1cccs1	inactive
COc1ccc(-n2ncc3c2ccc2cc(S(=O)(=O)c4ccccc4)c(=O)n(C)c23)cc1	inactive
Cc1ccc(S(=O)(=O)N(c2ccc(Cl)cc2)c2ccc(Br)cc2C(=O)O)cc1	inactive
COc1cc(CNCCCN2C(=O)c3ccc4c5c(ccc(c35)C2=O)C(=O)N(CCCNCc2cc(OC)c(OC)c(OC)c2)C4=O)cc(OC)c1OC	active

We next turn to a different molecule, shown below.
Write down the call the test reported for this molecule. Item: COc1ccc(/C=N/NC(=O)c2cnn3c2NC(c2ccccc2)C3)cc1OC1CCCC1 (stereo not given)
inactive

---

# Test system: MOLT-4 leukemia
# ASSAY TEXT: NCI-60 one-dose screen, 48 h (100 = growth as untreated, 0 = no growth, -100 = all killed)
# CONDITION NOTES: 10 µM unless noted
This is part of a sample that, as a whole, favours compounds with a hit. Of some 83,000 tested, about 20% had one in any assay.
Listing of entries alongside the reported growth.
Express the result in % but write the number alone.

Recorded results for 5 compounds are shown here.
COMPOUND	EXPERIMENTAL TARGET	READING
CCN1C(=O)C2(Nc3ccccc3S2)c2cc(C)ccc21 (stereo unspecified)	MOLT-4 leukemia	100
C[C@@H](Oc1cc(-c2cnn(C3CC4(CNC4)C3)c2)cnc1N)c1c(Cl)ccc(F)c1Cl	MOLT-4 leukemia	0.522
Cc1ccc2c(N/N=C\c3ccco3)cc(C)nc2n1	MOLT-4 leukemia	37
CCCC1=NNC(=O)C1	MOLT-4 leukemia	97.2
Cc1cc(C)c(S(=O)O)c(C)c1	MOLT-4 leukemia	109

Entry COc1cc(C2=NN(c3ccc(S(N)(=O)=O)cc3)C(c3ccc(Cl)cc3)C2)cc(OC)c1OC (stereo unspecified) has what growth?
16.6

Entry CCCCC(CCCC)(S(=O)(=O)CC)S(=O)(=O)CC has what growth?
93.6

Entry CC[Si](CC)(CC)OC1[C@@H](O[Si](CC)(CC)CC)[C@@H](CNC(=O)NC)O[C@H]1n1cnc2c(NC(=O)Nc3ccccc3)ncnc21 (stereo partly specified) has what growth?
-10.9

Entry COc1ccc(C(=O)COc2cccc(/C=C3\CSc4ccc(C)cc4C3=O)c2)cc1 has what growth?
-7.35

Entry OB(O)c1ccccc1 has what growth?
96.9

Entry COc1ccc(NC(=O)COc2ccccc2)c(C(N)=O)c1 has what growth?
20.1

Entry Clc1cccc(Cl)c1Nc1ccc2nnc(-c3ccncc3)n2n1 has what growth?
96.1

Entry Cn1cc(C(=O)NCCC(=N)N)cc1NC(=O)CN=C(N)N has what growth?
103

Entry COc1ccccc1-n1c(SCc2cc(OC)c(OC)c(OC)c2)nc2ccc(Cl)cc2c1=O has what growth?
15.4

Entry CCN(CC)c1ccc(/C=C(\C#N)c2cc3ccccc3[nH]2)cc1 has what growth?
37.8

Entry Cc1cc(=O)[nH]n1-c1cc(Cl)ccc1N has what growth?
112

Entry COc1ccc(Cn2c(Br)c3c(c2-c2cc(OC)c(OC)c(OC)c2)CCc2sc(N)nc2-3)cc1 has what growth?
8.47

Entry O=C(O)C[C@H](O)C[C@H](O)/C=C/c1c(C2CC2)nc2ccccc2c1-c1ccc(F)cc1 has what growth?
110
